Molecular target: Alk2/ACVRR1 (Homo sapiens, UniProt Q04771)
Sequence (Q04771 21-509): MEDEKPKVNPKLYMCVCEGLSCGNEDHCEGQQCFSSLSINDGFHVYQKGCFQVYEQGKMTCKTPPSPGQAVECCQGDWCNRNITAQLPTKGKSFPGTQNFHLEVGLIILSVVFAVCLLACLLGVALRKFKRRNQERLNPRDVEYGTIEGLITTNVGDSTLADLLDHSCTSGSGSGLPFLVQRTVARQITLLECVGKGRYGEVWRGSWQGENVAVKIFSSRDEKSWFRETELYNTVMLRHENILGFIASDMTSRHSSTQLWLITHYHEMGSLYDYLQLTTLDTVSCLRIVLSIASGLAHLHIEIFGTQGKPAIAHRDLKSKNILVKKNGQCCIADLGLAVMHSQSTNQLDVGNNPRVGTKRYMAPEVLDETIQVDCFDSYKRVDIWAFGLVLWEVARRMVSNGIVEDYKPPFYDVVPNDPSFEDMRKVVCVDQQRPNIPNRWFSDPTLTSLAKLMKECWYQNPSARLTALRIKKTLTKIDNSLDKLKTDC
Conditions: read-out: IC50 Alk2/ACVRR1; kinase activity; ATP 10 Micromolar; 10-point, duplicate
assay endpoint: pIC50
Answers are plain numbers, as −log10 of the molar value.

[ask] # get_value(readout='pIC50', item= c1ccc2c(-c3cnn4cc(-c5ccc(OCCN6CCOCC6)cc5)cnc34)ccnc2c1 )
[reply] 7.64

====

Target: Alk3/BMPR1A (Homo sapiens, UniProt P36894)
Sequence (P36894 24-532): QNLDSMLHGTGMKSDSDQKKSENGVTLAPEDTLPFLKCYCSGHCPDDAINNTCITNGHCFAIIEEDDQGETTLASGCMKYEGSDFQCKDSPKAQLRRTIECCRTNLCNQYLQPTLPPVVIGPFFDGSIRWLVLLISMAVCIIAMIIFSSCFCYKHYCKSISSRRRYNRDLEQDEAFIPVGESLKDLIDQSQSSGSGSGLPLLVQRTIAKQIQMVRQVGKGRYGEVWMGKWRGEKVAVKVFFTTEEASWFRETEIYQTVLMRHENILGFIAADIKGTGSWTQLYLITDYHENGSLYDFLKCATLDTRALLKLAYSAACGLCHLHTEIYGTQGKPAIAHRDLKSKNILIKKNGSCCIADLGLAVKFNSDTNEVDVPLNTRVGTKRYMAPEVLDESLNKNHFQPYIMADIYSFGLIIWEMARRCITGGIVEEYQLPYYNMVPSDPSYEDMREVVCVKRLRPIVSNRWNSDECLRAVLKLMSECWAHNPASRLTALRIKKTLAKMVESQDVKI
Conditions: read-out: IC50 Alk3/BMPR1A; kinase activity; ATP 10 Micromolar; 10-point, duplicate
assay endpoint: pIC50
One number for each entry, as −log10 of the molar value.

[ask] Would you mind telling me what pIC50 value was observed for c1ccc2c(-c3cnn4cc(-c5ccc(OCCN6CCOCC6)cc5)cnc34)ccnc2c1 ?
[reply] 7.04

====

Molecular target: TGFbetaR2 (Homo sapiens)
Sequence (P37173 23-567): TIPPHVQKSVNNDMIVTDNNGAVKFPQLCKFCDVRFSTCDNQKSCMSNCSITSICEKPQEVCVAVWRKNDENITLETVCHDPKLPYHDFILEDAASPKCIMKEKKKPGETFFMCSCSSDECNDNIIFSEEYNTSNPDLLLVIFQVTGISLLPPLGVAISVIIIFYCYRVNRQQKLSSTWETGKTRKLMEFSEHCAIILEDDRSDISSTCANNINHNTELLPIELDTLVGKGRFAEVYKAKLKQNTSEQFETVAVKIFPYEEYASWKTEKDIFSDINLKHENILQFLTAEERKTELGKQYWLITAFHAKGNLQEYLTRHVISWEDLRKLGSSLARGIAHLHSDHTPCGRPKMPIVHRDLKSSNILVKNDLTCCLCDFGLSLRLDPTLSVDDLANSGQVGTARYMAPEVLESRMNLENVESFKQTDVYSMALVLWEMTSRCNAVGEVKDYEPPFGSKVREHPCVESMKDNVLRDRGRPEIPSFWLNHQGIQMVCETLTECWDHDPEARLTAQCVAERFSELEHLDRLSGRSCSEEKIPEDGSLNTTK
assay endpoint: IC50 (nM)
One number for each entry, in nM.

[ask] What IC50 value was documented for this molecule, c1ccc2c(-c3cnn4cc(-c5ccc(OCCN6CCOCC6)cc5)cnc34)ccnc2c1 ?
[reply] 193
